- measurement_notes: oral bioavailability after oral dosing at 1 mg/kg
- Format: ADME, organism-based
- condition_details: rat, in vivo, read-out: Bioavailabiility
reported_property: bioavailability (%)
Answers are plain numbers, in %.

**Q:** So what's the measured bioavailability for this one? `CSc1nccc(Nc2cc(NC(=O)c3cc(F)cc(N4CCOCC4)c3)ccc2C)n1`
**A:** 26

---

Record form. Attribute: IC50. Fill in for each entry.
- Species: Homo sapiens
- measurement_notes: Concentration required to inhibit TNF-alpha production was determined in human whole blood
- Format: functional
Numbers only, in µM.

The following molecules have reported results that may help.
COc1cc2ncnc(Nc3cc(NC(=O)c4ccnc(N5CCOCC5)c4)ccc3C)c2cc1OCCN1CCOCC1: 7.8
Cc1ccc(NC(=O)c2ccnc(N3CCOCC3)c2)cc1Nc1ccnc(OCCCN(C)C)n1: 3.2
Cc1ccc(NC(=O)c2ccnc(N3CCOCC3)c2)cc1Nc1ccncn1: 27

Next molecule, please.
**Q:** So what's the measured IC50 for this one? C[S+]([O-])c1ccc(-c2nc(-c3ccc(F)cc3)c(-c3ccncc3)[nH]2)cc1 (centres undefined) [SB-203580]
**A:** 2
